target: P2X7 receptor (Homo sapiens (Human), UniProt Q99572); assay: P2X7 FLIPR assay (BzATP-stimulated calcium fluorescence, antagonist IC50); type: cell-based
Sequence (Q99572 whole entry): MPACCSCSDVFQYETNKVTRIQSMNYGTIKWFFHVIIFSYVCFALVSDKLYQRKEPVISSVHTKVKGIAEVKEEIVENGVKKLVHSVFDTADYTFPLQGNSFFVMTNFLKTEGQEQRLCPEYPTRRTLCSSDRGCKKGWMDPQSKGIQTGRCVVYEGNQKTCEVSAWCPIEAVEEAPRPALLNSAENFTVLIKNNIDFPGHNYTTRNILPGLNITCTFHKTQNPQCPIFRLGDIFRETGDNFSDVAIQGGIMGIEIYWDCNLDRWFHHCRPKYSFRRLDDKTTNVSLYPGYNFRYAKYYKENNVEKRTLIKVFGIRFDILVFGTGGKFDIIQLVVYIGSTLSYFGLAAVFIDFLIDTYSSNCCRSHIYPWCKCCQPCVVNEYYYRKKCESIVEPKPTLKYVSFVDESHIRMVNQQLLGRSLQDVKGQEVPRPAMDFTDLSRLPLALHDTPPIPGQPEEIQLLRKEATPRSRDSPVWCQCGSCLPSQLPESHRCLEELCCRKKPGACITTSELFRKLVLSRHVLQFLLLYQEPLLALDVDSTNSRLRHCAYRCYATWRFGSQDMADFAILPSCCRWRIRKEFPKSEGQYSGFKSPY
ASSAY_METRIC: log10(IC50) (log10 of the value in nM)
Record value = log10 of IC50 given in nM.

Use these answered entries as a reference point.
O=C(NCC(c1ccc(Cl)cc1)C1CCOCC1)c1cccc(Cl)c1Cl (stereo not shown) :: 0.20
O=C(NCC(c1ccc(Cl)cc1)C1CCOCC1)c1ccccc1Cl (stereo not shown) :: 1.15
Cc1ccccc1C(=O)NCC1(c2ccc(Cl)cc2)CCN(C)CC1 :: 1.78
Cc1ncc(C(CNC(=O)c2c(F)cccc2Cl)C2CCOCC2)cn1 (stereo not shown) :: 3.28
O=C(NCC(CC1CC1)c1cnc(C(F)(F)F)nc1)c1ccccc1Cl (single isomer, unassigned; (-)) [(−)2-chloro-N-[3-cyclopropyl-2-[2-(trifluoromethyl)pyrimidin] :: 0.51
CC(NC(=O)c1cccc(Cl)c1Cl)C1(c2ccc(Br)nc2)CCC(F)(F)CC1 (stereo not shown) :: 1.63
CS(=O)(=O)c1ccc(Cl)c(C(=O)NCC(CC2CC2)c2ccc(C(F)(F)F)nc2)c1 (single isomer, unassigned; (-)) [(−)2-chloro-N-[3-cyclopropyl-2-[6-(trifluoromethyl)-3-pyridy] :: 0.91
O=C(NCC(c1ccc(F)cc1)c1ccc(C(F)(F)F)nc1)c1cccc(Cl)c1Cl (single isomer, unassigned; (+)) [(+)2,3-dichloro-N-[2-(4-fluorophenyl)-2-[6-(trifluoromethyl)] :: 1.08
O=C(NCC1(c2ccc(F)nc2)CCC(F)(F)CC1)c1ccccc1F [N-((4,4-difluoro-1-(6-fluoropyridin-3-yl)cyclohexyl)methyl)-] :: 2.28
O=C(NCC(c1cnc(C(F)(F)F)nc1)C1CCC(F)(F)CC1)c1cccc(Cl)c1Cl (single isomer, unassigned; (+)) [(+)2,3-dichloro-N-[2-(4,4-difluorocyclohexyl)-2-[2-(trifluor] :: 0.76

Please give log10(IC50) for each item listed below.
1. O=C(NCC(c1ccccc1)c1ccc(C(F)(F)F)nc1)c1c(Cl)cccc1Cl (single isomer, unassigned; (-)) [(−)2,6-dichloro-N-[2-phenyl-2-[6-(trifluoromethyl)-3-pyridyl]
2. Cc1ccc(C(CNC(=O)c2cccc(Cl)c2Cl)CC2CC2)c(C)n1 (stereo not shown)
3. O=C(NCC1(c2ccc(Cl)cc2)CCOCC1)c1ccccc1Cl
4. COc1ccc(C2(CNC(=O)c3cccc(Cl)c3Cl)CCC(F)(F)CC2)cn1
5. Cc1ncc(C2(C(C)NC(=O)c3cccc(F)c3Cl)CCOCC2)cn1 (stereo not shown)

Data returned:
1: 1.26; 2: 3.11; 3: 2.90; 4: -0.02; 5: 1.18

Please give log10(IC50) for each item listed below.
1. Cc1ncc(C2(C(C)NC(=O)c3cccc(Cl)c3Cl)CCC(F)(F)CC2)cn1 (stereo not shown)
2. O=C(NCC(CC1CC1)c1cnc(C(F)(F)F)nc1)c1cccc(F)c1Cl (single isomer, unassigned; (-)) [(−)2-chloro-N-[3-cyclopropyl-2-[2-(trifluoromethyl)pyrimidin]
3. Cc1ncc(C(CNC(=O)c2cccc(Cl)c2Cl)CC2(C(F)(F)F)CC2)cn1 (stereo not shown) [2,3-dichloro-N-[2-(2-methylpyrimidin-5-yl)-3-[1-(trifluorome]
4. O=C(NCC1(c2ccc(Cl)cc2)CCOCC1)c1cc(Br)ccc1Cl

Data returned:
2.98
0.67
0.85
2.11
